Hello, the source for this data is paper PMC9352680, in case you need it.

We begin with a simple list: items and their reported Kd.
Biological target: T1, PUF4 RNA-binding domain (Saccharomyces cerevisiae, UniProt P25339 537-888)
T1 sequence: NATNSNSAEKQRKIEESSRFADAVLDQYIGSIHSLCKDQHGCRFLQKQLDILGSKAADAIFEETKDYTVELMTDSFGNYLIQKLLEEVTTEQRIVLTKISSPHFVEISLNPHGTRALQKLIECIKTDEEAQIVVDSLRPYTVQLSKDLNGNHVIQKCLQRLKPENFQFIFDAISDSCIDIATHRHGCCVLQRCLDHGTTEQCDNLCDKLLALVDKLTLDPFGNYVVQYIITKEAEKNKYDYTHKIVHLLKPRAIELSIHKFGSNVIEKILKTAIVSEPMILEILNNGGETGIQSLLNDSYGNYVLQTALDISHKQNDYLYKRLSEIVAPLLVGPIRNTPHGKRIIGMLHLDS
Assay: Mg; RNA-MaP; 20 mM Na-HEPES pH 7.4, 30 mM KOAc, 0.75 mM MgCl2, 0.1% Tween-20, 5% glycerol, 0.1 mg/mL BSA, 2 mM DTT; 25 C; 0.0125-409.6 nM protein
Details: tags: N-His6-TEV cleaved; C-SNAP kept, Cy3B-labelled; label: tethered on chip by stalled RNA polymerase
Express it in nM; write the number only.

Worked cases, answers included:
binder | quantity.measured | observed.value
Id_i_S4_P3E.7_K3.3_C3.3_[T-3C]_[C-2A]_[T-1A]_H3.3_A3.1_F3.1_T3.2 (ssRNA) RNA: UUUGACAACUGAUCGUUCUUUCUCAAACACUAUAUAUUCUUUCUCGAUCAGUUGUCUUU | Kd | 110
Ib_S4_P4E.1_K4.1_C4.1_H4.1_A4.1_[T5A]_F4.1_[T8C]_T4.1 (ssRNA) RNA: UUUGACAACUGAUCGUUCUUUCUUGUAAAUCAUUCUUUCUCGAUCAGUUGUCUUU | Kd | 78.4

From here, focus on the item given below.
Asked: I would be grateful if you could share the reported Kd for Ie_S2_P3E.2_K3.1_C3.2_H3.1_[+1CCT]_A3.1_F3.1_T3.2 (ssRNA) RNA: UUUGAUUAAUAUGAUAUCGUUCUUUCUCUUCCUGUAUAUAUAUUCUUUCUCGAUAUCAUAUUAAUCUUU .
Given back: 1.05
